Measured values drawn from ChEMBL document CHEMBL3621052 for this set.

- ASSAYED TARGET: Ferroportin (Homo sapiens, UniProt Q9NP59)
- Sequence (Q9NP59 whole entry, the tested form may be a part): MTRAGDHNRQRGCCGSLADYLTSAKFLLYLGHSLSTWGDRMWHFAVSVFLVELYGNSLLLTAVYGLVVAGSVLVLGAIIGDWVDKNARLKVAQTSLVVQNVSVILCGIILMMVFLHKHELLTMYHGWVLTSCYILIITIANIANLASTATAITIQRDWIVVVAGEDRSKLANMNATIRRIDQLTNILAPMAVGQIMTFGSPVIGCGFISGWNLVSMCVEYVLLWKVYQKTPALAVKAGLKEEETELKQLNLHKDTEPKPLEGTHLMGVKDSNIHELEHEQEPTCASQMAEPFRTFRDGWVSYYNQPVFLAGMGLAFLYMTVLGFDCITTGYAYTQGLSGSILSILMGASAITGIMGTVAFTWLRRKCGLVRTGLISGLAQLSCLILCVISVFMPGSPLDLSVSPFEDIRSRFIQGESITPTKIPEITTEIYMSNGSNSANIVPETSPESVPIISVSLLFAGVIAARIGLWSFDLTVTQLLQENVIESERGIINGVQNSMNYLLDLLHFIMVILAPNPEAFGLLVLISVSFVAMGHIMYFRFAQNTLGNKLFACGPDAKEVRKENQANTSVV
- ASSAY TEXT: Agonist activity at GFP-fused human FPN transfected in HEK293 cells assessed as protein degradation after 24 hrs by flow cytometric analysis
pEC50: −log10 of the molar value. Starred links: 1 amine or outer side, 2 acyl side, 3 side chain; linkers in the order of their positions; H or OH if unused. Positions of bridges follow the written chain, without caps; N, C: chain ends. Non-standard residues stand in square brackets, D forms with d. Residues, ends and D or L forms follow the SMILES beside them. ξ: configuration not given here. *: point of attachment. CH2CONHCH2CH2NHCOCH2 = O=C(C[*:1])NCCNC(=O)C[*:2]; dDip = N[C@@H](C(=O)O)C(c1ccccc1)c1ccccc1; Dip = N[C@H](C(=O)O)C(c1ccccc1)c1ccccc1; TBMB = c1c(C[*:1])cc(C[*:3])cc1C[*:2]; mXylylene = c1cc(C[*:1])cc(C[*:2])c1; Palmitoyl = CCCCCCCCCCCCCCCC(=O)*; X4 = c1cc(CSCCN[*:2])cc(C[*:1])c1; ξF = NC(Cc1ccccc1)C(=O)O
Where pEC50 equals or exceeds 7, the correct label is Fulfilled; where it does not, the label is Not fulfilled.

*Q* Record CC(=O)N[C@H]1CSCc2cc3cc(c2)CSC[C@H](NC(=O)C(Cc2ccccc2)NC(=O)[C@H](CCCNC(=N)N)NC(=O)[C@H](CS)NC(=O)[C@H](CCCNC(=N)N)NC(=O)[C@@H]2CCCN2C(=O)[C@H](Cc2ccccc2)NC1=O)C(=O)N[C@@H](Cc1ccccc1)C(=O)N1CCC[C@H]1C(=O)N[C@@H](CCCNC(=N)N)C(=O)N[C@@H](CS)C(=O)N[C@@H](CCCNC(=N)N)C(=O)N[C@@H](Cc1ccccc1)C(=O)N[C@H](C(N)=O)CSC3 (some centres not stated) (Ac-CFPRCR[ξF]CFPRCRFC-NH2; linker 1-8-15 via TBMB) ; criterion: pEC50 no lower than 7. Met?
*A* Not fulfilled

*Q* Decide: is the reported value of pEC50 for CCCCCCCCCCCCCCCC(=O)N[C@H](C(=O)N[C@H]1CSCc2cccc(c2)CSCCNC(=O)[C@H](Cc2ccccc2)NC(=O)[C@H](CCCNC(=N)N)NC(=O)[C@H](CS)NC(=O)[C@H](CCCNC(=N)N)NC1=O)C(c1ccccc1)c1ccccc1 (Palmitoyl-[Dip]CRCRF; linker 2-C via X4) equal to or greater than 7?
*A* Not fulfilled

*Q* Given CCCCCCCCCCCCCCCC(=O)N[C@@H](C(=O)N[C@H]1CSCc2cccc(c2)CSCCNC(=O)[C@H](Cc2ccccc2)NC(=O)[C@H](CCCNC(=N)N)NC(=O)[C@H](CS)NC(=O)[C@H](CCCNC(=N)N)NC1=O)C(c1ccccc1)c1ccccc1 (Palmitoyl-[dDip]CRCRF; linker 2-C via X4) , state whether its pEC50 is at least 7.
*A* Not fulfilled

*Q* Record CC(=O)N[C@H]1CSCc2cccc(c2)CSC[C@@H](C(N)=O)NC(=O)[C@H](Cc2ccccc2)NC(=O)[C@H](CCCNC(=N)N)NC(=O)[C@H](CS)NC(=O)[C@H](CCCNC(=N)N)NC(=O)[C@@H]2CCCN2C(=O)[C@H](C(c2ccccc2)c2ccccc2)NC1=O (Ac-C[Dip]PRCRFC-NH2; linker 1-8 via mXylylene) ; criterion: pEC50 no lower than 7. Met?
*A* Fulfilled

*Q* Assess whether reported pEC50 for CC(=O)N[C@H]1CSCC(=O)NCCNC(=O)CSC[C@@H](C(N)=O)NC(=O)[C@H](Cc2ccccc2)NC(=O)[C@H](CCCNC(=N)N)NC(=O)[C@H](CS)NC(=O)[C@H](CCCNC(=N)N)NC(=O)[C@@H]2CCCN2C(=O)[C@H](Cc2ccccc2)NC1=O (Ac-CFPRCRFC-NH2; linker 1-8 via CH2CONHCH2CH2NHCOCH2) sits at 7 or higher.
*A* Not fulfilled

*Q* Please tell me: is the molecule "CCCCCCCCCCCCCCCCNC(=O)CN(CC(N)=O)C(=O)CCCCCNC(=O)[C@@H]1CSCc2cccc(c2)CSC[C@H](NC(C)=O)C(=O)N[C@@H](C(c2ccccc2)c2ccccc2)C(=O)N2CCC[C@H]2C(=O)N[C@@H](CCCNC(=N)N)C(=O)N[C@@H](CS)C(=O)N[C@@H](CCCNC(=N)N)C(=O)N[C@@H](Cc2ccccc2)C(=O)N1" at or over 7 in terms of pEC50?
*A* Fulfilled
